Source listed as patent US7612211B2.

assayed system: hTRPV1 (Homo sapiens)
Sequence (Q8NER1 whole entry): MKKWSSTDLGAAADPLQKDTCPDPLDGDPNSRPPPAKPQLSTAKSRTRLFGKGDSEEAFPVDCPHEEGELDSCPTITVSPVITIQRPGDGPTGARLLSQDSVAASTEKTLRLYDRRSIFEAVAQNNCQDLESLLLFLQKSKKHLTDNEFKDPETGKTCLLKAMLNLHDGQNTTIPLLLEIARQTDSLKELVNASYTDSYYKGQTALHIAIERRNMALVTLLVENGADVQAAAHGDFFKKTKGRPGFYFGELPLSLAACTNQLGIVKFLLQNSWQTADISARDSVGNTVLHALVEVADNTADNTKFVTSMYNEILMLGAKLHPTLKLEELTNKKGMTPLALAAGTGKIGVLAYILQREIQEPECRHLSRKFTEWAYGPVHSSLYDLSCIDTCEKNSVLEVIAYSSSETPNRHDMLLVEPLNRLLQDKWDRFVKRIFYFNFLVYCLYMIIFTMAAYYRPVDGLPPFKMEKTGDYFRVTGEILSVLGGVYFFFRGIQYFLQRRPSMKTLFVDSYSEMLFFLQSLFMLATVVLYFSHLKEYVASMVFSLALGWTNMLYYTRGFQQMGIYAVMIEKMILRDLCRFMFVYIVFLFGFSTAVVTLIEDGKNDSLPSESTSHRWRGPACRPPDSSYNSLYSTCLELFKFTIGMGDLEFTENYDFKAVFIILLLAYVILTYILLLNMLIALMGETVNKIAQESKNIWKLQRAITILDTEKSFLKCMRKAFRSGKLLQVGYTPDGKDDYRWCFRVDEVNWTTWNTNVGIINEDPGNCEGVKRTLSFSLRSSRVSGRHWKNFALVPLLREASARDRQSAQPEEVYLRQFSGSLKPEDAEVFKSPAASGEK
measurement notes: Human TRPV1 (hTRPV1) functional assay, FLIPR intracellular Ca2+, capsaicin challenge
assay conditions: derived from a variety of test concentrations; HEK293 cells expressing hTRPV1, capsaicin 0.030 μM challenge; read-out: IC50 value (symbol c)
Experimental: The functional activity of the test compounds was determined by measuring changes in intracellular calcium concentration using a Ca^++-sensitive fluorescent dye and FLIPR™ technology. Increases in Ca^++ concentration were readily detected upon challenge with capsaicin. […] EC50 or IC50 values were determined from concentration-response studies, which were generated using the average of quadruplicate wells for each data point. […]
assay metric: IC50 (nM)

| compound | IC50, nM |
| --- | --- |
| NS(=O)(=O)c1ccccc1-c1ccc2[nH]c(COc3ccc(F)cc3F)nc2c1 | 110 |
| CC(C)(O)CS(=O)(=O)c1ccccc1-c1ccc2[nH]c(COc3ccc(C(F)(F)F)cc3)nc2c1 | 22 |
| CC(C)c1ccc(OCc2nc3cc(-c4ccccc4S(N)(=O)=O)ccc3[nH]2)cc1 | 8.9 |
| CS(=O)(=O)c1ccccc1-c1ccc2[nH]c(COc3cccc(C(F)(F)F)c3)nc2c1 | 68 |
| Cc1ccc(OCc2nc3cc(-c4ccccc4S(C)(=O)=O)ccc3[nH]2)cc1 | 31 |

A: CC(C)(O)c1ccccc1-c1ccc2[nH]c(COc3ccc(C4CC4)cc3)nc2c1
B: NS(=O)(=O)c1ccccc1-c1ccc2[nH]c(NCc3ccc(C(F)(F)F)cc3)nc2c1
Lookup: Lowest IC50? choose A or B Field: selected label. Fill in the label of the entry you choose.
Found: A
